- Test method notes: chemical genetic growth profiling, strain panel (AID 1159580);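 also: tested at 20 µM; growth read once vehicle control cultures reached saturation at 30 °C; 1 = growth at the plate median or of vehicle wells; lower values mean less growth of the strain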
- Assay conditions: S. cerevisiae deletion strains, growth OD, locus YJL092W, strain hpr5, stronger effect = lower value
Out of some 5,500 compounds screened, about 2,000 (36%) were called active. About 18% were inconclusive and are not listed. Some of the results follow.
Reported endpoint: normalized growth
Output spec: single numeric token, no unit.

Guide cases for normalized growth, answers given:
Compound: C[C@]12CCC3C(CC[C@H]4C[C@@H](O)CC[C@]34C)C1CCC2=O (some centres undefined)
normalized growth: 0.988

Compound: COC(=O)C1=CO[C@@H](O[C@@H]2O[C@H](CO)[C@@H](O)[C@H](O)[C@H]2O)[C@@H]2[C@@H](C)[C@@H](O)C[C@H]12
normalized growth: 1

Compound: CC1=C2CCC3C(CC[C@]4(C)C(=O)CCC34)[C@@]2(C)CCC1=O (some centres undefined)
normalized growth: 0.992

Exam item: So what's the measured normalized growth for this one? OC[C@@H](O)C(O[C@@H]1O[C@H](CO)[C@H](O)[C@H](O)[C@H]1O)[C@H](O)[C@@H](O)CO (some centres undefined)
Marked response: 0.989
